Provide the recorded mortality for the entries that follow.
Experiment: in vivo
Details: iv, 400 mg/kg i.v., read-out: Toxicity (Mortality)
Give bare numbers, in %.

Examples with answers:
>>> recorded_measurement("CNC(=O)Nc1ccc(OCC(O)CN2CCN(C(=O)/C=C/c3cc(OC)c(OC)c(OC)c3)CC2)c2c1OCCO2 (stereo not shown)")
0
>>> recorded_measurement("COc1cc(/C=C/C(=O)N2CCN(CC(O)COc3ccc(NC(=O)NC(C)C)c4c3OCCO4)CC2)cc(OC)c1OC (stereo not shown)")
40
>>> recorded_measurement("CCCCNC(=O)Nc1ccc(OCC(O)CN2CCN(C(=O)/C=C/c3cc(OC)c(OC)c(OC)c3)CC2)c2c1OCCO2 (stereo not shown)")
30
>>> recorded_measurement("COc1cc(/C=C/C(=O)N2CCN(CC(O)COc3ccc(NC(C)=O)cc3)CC2)cc(OC)c1OC (stereo not shown)")
0
>>> recorded_measurement("CNC(=O)Nc1ccc(OCC(O)CN2CCN(C(=O)/C=C/c3cc(OC)c(OC)c(OC)c3)CC2)c2c1OCO2 (stereo not shown)")
20

# map each molecule to its mortality
1. COc1cc(/C=C/C(=O)N2CCN(CC(O)COc3ccccc3NC(C)=O)CC2)cc(OC)c1OC (stereo not shown)
2. CNC(=O)c1ccc(OCC(O)CN2CCN(C(=O)/C=C/c3cc(OC)c(OC)c(OC)c3)CC2)cc1 (stereo not shown)

40
0

----------
Assay: in vivo
Details: iv, 360 mg/kg i.v., read-out: Toxicity (Mortality)
measure: mortality (%)
One number for each entry, in %.

Please report mortality for the following compound: CCCC(=O)c1ccc(OCC(O)CN2CCN(C(=O)/C=C/c3cc(OC)c(OC)c(OC)c3)CC2)c2c1OCCO2 (stereo not shown) [760 866] 30

----------
Test system: anaesthetized dog
Test: Antiangorous activity on anaesthetized dog: consumption of oxygen in the left ventricule and cardiac effort (KATZ's index)
Type: in vivo
Settings: Canis lupus familiaris, iv, 0.15 mg/kg i.v. slow perfusion, read-out: Diminution in the cardiac effort (IK)
measure: inhibition in vivo at […] (%)
Numbers only, in %.

Reference set, count: 5
>>> recorded_measurement("COc1cc(/C=C/C(=O)N2CCN(CC(O)COc3ccc(C(=O)Nc4ccccc4)c4c3OCCO4)CC2)cc(OC)c1OC (stereo not shown)")
5
>>> recorded_measurement("CCCCCOC(=O)c1ccc(OCC(O)CN2CCN(C(=O)/C=C/c3cc(OC)c(OC)c(OC)c3)CC2)c2c1OCCO2 (stereo not shown)")
28
>>> recorded_measurement("CCCCNC(=O)Nc1ccc(OCC(O)CN2CCN(C(=O)/C=C/c3cc(OC)c(OC)c(OC)c3)CC2)c2c1OCCO2 (stereo not shown)")
27
>>> recorded_measurement("COc1cc(/C=C/C(=O)N2CCN(CC(O)CSc3ccc(C(C)=O)c4c3OCCO4)CC2)cc(OC)c1OC (stereo not shown)")
25
>>> recorded_measurement("CNC(=O)Nc1ccc(OCC(O)CN2CCN(C(=O)/C=C/c3cc(OC)c(OC)c(OC)c3)CC2)c2ccccc12 (stereo not shown)")
25

Items follow; give inhibition in vivo at […] for each.
1. CCCNC(=O)Nc1ccc(OCC(O)CN2CCN(C(=O)/C=C/c3cc(OC)c(OC)c(OC)c3)CC2)c2c1OCCO2 (stereo not shown)
2. COc1cc(/C=C/C(=O)N2CCN(CC(O)COc3ccc(NC(=O)Nc4ccccc4)c4c3OCCO4)CC2)cc(OC)c1OC (stereo not shown)

1: 16; 2: 14

// for each molecule below, give its inhibition in vivo at […]
1. COc1cc(/C=C/C(=O)N2CCN(CC(O)COc3ccc(NC(=O)N4CCOCC4)c4c3OCCO4)CC2)cc(OC)c1OC (stereo not shown)
2. COc1cc(/C=C/C(=O)N2CCN(CC(O)COc3ccc(NC(=O)NC(C)C)c4c3OCCO4)CC2)cc(OC)c1OC (stereo not shown)
3. COc1cc(/C=C/C(=O)N2CCN(CC(O)COc3ccc(C(C)C)cc3)CC2)cc(OC)c1OC (stereo not shown)
4. COc1cc(/C=C/C(=O)N2CCN(CC(O)COc3ccc(C(C)=O)c4c3OCCCO4)CC2)cc(OC)c1OC (stereo not shown)
5. CNC(=O)Nc1ccc(OCC(O)CN2CCN(C(=O)/C=C/c3cc(OC)c(OC)c(OC)c3)CC2)c2c1OCCO2 (stereo not shown)
6. COc1cc(/C=C/C(=O)N2CCN(CC(O)COc3ccc(C(=O)OC4CCCCC4)c4c3OCCO4)CC2)cc(OC)c1OC (stereo not shown)

1. 14
2. 32
3. 15
4. 13
5. 28
6. 21

Consider the following items and state reported inhibition in vivo at […] for each.
1. COc1cc(/C=C/C(=O)N2CCN(CC(O)COc3ccc(NC(C)=O)c4c3OCO4)CC2)cc(OC)c1OC (stereo not shown)
2. CCNC(=O)Nc1ccc(OCC(O)CN2CCN(C(=O)/C=C/c3cc(OC)c(OC)c(OC)c3)CC2)c2c1OCCO2 (stereo not shown)

1. 2
2. 11

Please list inhibition in vivo at […] recorded for the molecule COc1cc(/C=C/C(=O)N2CCN(CC(O)COc3ccc(NC(=O)N(C)C)c4c3OCCO4)CC2)cc(OC)c1OC (stereo not shown) 9

Data origin: patent US4178442A
